Values compiled from ChEMBL document CHEMBL5260794.

# Species: Rattus norvegicus
# Protocol Notes: Neuroprotective activity against oxygen glucose deprivation/reperfusion-induced Wistar rat cortical brain assessed as reduction in glutamate release by measuring minimal effective concentration
# Assay type: functional
Active and inactive are the calls of the source. The rule behind the calls is not given here.
Measured Endpoint: MEC

Answered examples (4):
CCCN(CCC)/C(C)=N/C1=Nc2ccccc2SC1 = inactive
CN/C(C)=N/C1=Nc2ccccc2SC1 = 0.1 µM
CCCN(CCC)/C(C)=N/C1=Nc2ccccc2CS1 = 1 µM
NC1=Nc2ccc(OC(F)(F)F)cc2CS1 = 0.001 µM

For every item in the list below, what is its measured MEC?
1. C/C(=N\C1=Nc2ccccc2CS1)N(C)C
2. CCN(CC)/C(C)=N/C1=Nc2ccc(OC(F)(F)F)cc2CS1

Reply:
["0.01 µM", "inactive"]

For every item in the list below, what is its measured MEC?
1. CCN(CC)/C(C)=N/C1=Nc2ccccc2SC1
2. CCCN(CCC)/C(C)=N/C1=Nc2ccc(OC(F)(F)F)cc2CS1
3. CCN(CC)/C(C)=N/C1=Nc2ccccc2CS1
4. CCCNC(=S)NC1=Nc2ccccc2CS1
5. C/C(=N\C1=Nc2ccccc2SC1)N(C)C
6. CN/C(C)=N/C1=Nc2ccccc2CS1

Reply:
["inactive", "0.01 µM", "0.1 µM", "0.001 µM", "inactive", "5 µM"]
